- protocol: physchem
- conditionNotes: aqueous buffer
measuredQuantity: solubility

solubility for `CSCC[C@H](NC(=O)[C@H](CC(=O)O)NC(=O)[C@H](CCCCN)NC(=O)[C@H](Cc1ccccc1)NC(=O)[C@H](CO)NC(=O)[C@@H](N)Cc1ccc(O)cc1)C(=O)N1CCC[C@H]1C(=O)N(C)[C@@H](CC(C)C)C(=O)N[C@H](C)C(=O)N[C@@H](CCCNC(=N)N)C(=O)O` is ~100 mg/mL

Data provenance: paper PMC11677424
